tested on: EoL-1-cell (Acute Myeloid Leukemia); assay: combination Emax (second highest fraction inhibited in the dose matrix, 72 h); higher = more inhibition; extreme values may be limits of the assay
Task for the reader: assign each of the following molecules its reported combination Emax.
Numbers only.

CC1(C)CCC(CN2CCN(c3ccc(C(=O)NS(=O)(=O)c4ccc(NCC5CCOCC5)c([N+](=O)[O-])c4)c(Oc4cnc5[nH]ccc5c4)c3)CC2)=C(c2ccc(Cl)cc2)C1 [Venetoclax] + CS(=O)(=O)CCNCc1ccc(-c2ccc3ncnc(Nc4ccc(OCc5cccc(F)c5)c(Cl)c4)c3c2)o1 [Lapatinib] (first compound max 1 µM, 7x7, partner max 10 µM) : 0.986

Okay, now this molecule:
QUERY: I am curious: what combination Emax value has been reported for CC(=O)c1c(C)c2cnc(Nc3ccc(N4CCNCC4)cn3)nc2n(C2CCCC2)c1=O [Palbociclib] + Cn1cnc2c(F)c(Nc3ccc(Br)cc3Cl)c(C(=O)NOCCO)cc21 [Selumetinib] (first compound max 10 µM, 7x7, partner max 10 µM) ?
RESULT: 0.952

###

Task for the reader: assign each of the following compounds its reported Bliss excess.
test system: YH-13 (Glioblastoma); assay: Bliss excess, mean over the matrix (fraction); higher = more synergy;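 note: after 72 h of two-drug dosing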
Answers are plain numbers.

Worked set:
CC1(C)CCC(CN2CCN(c3ccc(C(=O)NS(=O)(=O)c4ccc(NCC5CCOCC5)c([N+](=O)[O-])c4)c(Oc4cnc5[nH]ccc5c4)c3)CC2)=C(c2ccc(Cl)cc2)C1 [Venetoclax] + Cc1cc2ncnn2cc1Nc1ncc2c(n1)n(C1CCOCC1)c(=O)n2C [AZD7648] (first compound max 1 µM, 7x7, partner max 10 µM) : -0.0484
C=CCn1c(=O)c2cnc(Nc3ccc(N4CCN(C)CC4)cc3)nc2n1-c1cccc(C(C)(C)O)n1 [AZD1775] + O=C(c1cc(Cc2n[nH]c(=O)c3ccccc23)ccc1F)N1CCN(C(=O)C2CC2)CC1 [Olaparib] (first compound max 1 µM, partner max 10 µM) : -0.0513

QUERY: Checklist item: Bliss excess tested on YH-13 (Glioblastoma), entry CC1(C)CCC(CN2CCN(c3ccc(C(=O)NS(=O)(=O)c4ccc(NCC5CCOCC5)c([N+](=O)[O-])c4)c(Oc4cnc5[nH]ccc5c4)c3)CC2)=C(c2ccc(Cl)cc2)C1 [Venetoclax] + CN(C)CCCOc1ccc(-c2ccc3ncc4c(c3c2)n(C2CCOCC2)c(=O)n4C)cn1 [AZD0156] (first compound max 1 µM, 7x7, partner max 1 µM) , value?;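 note: after 72 h of two-drug dosing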
RESULT: -0.0972

###

Task for the reader: assign each of the following compounds its reported combination Emax.
system: HOP-62 (Lung Adenocarcinoma); experiment: combination Emax (second highest fraction inhibited in the dose matrix, 72 h); higher = more inhibition; extreme values may be limits of the assay
Answers are plain numbers.

CN(C)CCCOc1ccc(-c2ccc3ncc4c(c3c2)n(C2CCOCC2)c(=O)n4C)cn1 [AZD0156] + C=CCn1c(=O)c2cnc(Nc3ccc(N4CCN(C)CC4)cc3)nc2n1-c1cccc(C(C)(C)O)n1 [AZD1775] (first compound max 1 µM, partner max 1 µM) : 0.266

Okay, now this compound:
QUERY: I am curious: what combination Emax value has been reported for Cn1cnc2c(F)c(Nc3ccc(Br)cc3Cl)c(C(=O)NOCCO)cc21 [Selumetinib] + CCN(CCO)CCCOc1ccc2c(Nc3cc(CC(=O)Nc4cccc(F)c4)[nH]n3)ncnc2c1 [AZD2811] (first compound max 10 µM, 7x7, partner max 1 µM) ?
RESULT: 0.475
